Where do these numbers come from? They come from patent US20260373135A1.

Assay: Four-period, two-way crossover open label single-dose food-effect pharmacokinetic study of tradipitant capsules in healthy participants (plasma tradipitant and metabolites M2, M3, M4, M8)
Assay type: in vivo, human
Settings: human, plasma, po, 170 mg, 170 mg tradipitant oral, fasted; plasma; median; read-out: Tmax
readout label: Tmax

> print(dat)
                           smiles.structure  readout.label  observed
1  O=C(c1ccccc1Cl)c1cccnc1-c1nnn(Cc2cc(C(F)(F)F)cc(C(F)(F)F)c2)c1-c1ccncc1           Tmax     1.5 h

###

Test: Four-period, two-way crossover open label single-dose food-effect pharmacokinetic study of tradipitant capsules in healthy participants (plasma tradipitant and metabolites M2, M3, M4, M8)
Assay type: in vivo, human
Conditions: human, plasma, po, 85 mg, 85 mg tradipitant oral, fasted; ln-transformed; read-out: Cmax, Least Squares Geometric Mean, Fasted
readout label: Cmax (ng/mL)

> print(dat)
                                   compound  unit.of.measure  observed
1  O=C(c1ccccc1Cl)c1cccnc1-c1nnn(Cc2cc(C(F)(F)F)cc(C(F)(F)F)c2)c1-c1ccncc1 [tradipitant]            ng/mL      84.7

###

Test: Four-period, two-way crossover open label single-dose food-effect pharmacokinetic study of tradipitant capsules in healthy participants (plasma tradipitant and metabolites M2, M3, M4, M8)
Format: in vivo, human
Settings: human, plasma, po, 85 mg, 85 mg tradipitant oral, fed; plasma; median; read-out: Tmax
readout label: Tmax (h)

> print(dat)
                           smiles.structure  observed
1  O=C(c1ccccc1Cl)c1cccnc1-c1nnn(Cc2cc(C(F)(F)F)cc(C(F)(F)F)c2)c1-c1ccncc1         4

###

Assay: Four-period, two-way crossover open label single-dose food-effect pharmacokinetic study of tradipitant capsules in healthy participants (plasma tradipitant and metabolites M2, M3, M4, M8)
Format: in vivo, human
Details: human, plasma, po, 170 mg, 170 mg tradipitant oral, fed; plasma; median; read-out: Tmax
readout label: Tmax (h)

> print(dat)
                           smiles.structure  observed
1  O=C(c1ccccc1Cl)c1cccnc1-c1nnn(Cc2cc(C(F)(F)F)cc(C(F)(F)F)c2)c1-c1ccncc1         4

###

Assay: Four-period, two-way crossover open label single-dose food-effect pharmacokinetic study of tradipitant capsules in healthy participants (plasma tradipitant and metabolites M2, M3, M4, M8)
Format: in vivo, human
Conditions: human, plasma, po, 85 mg, 85 mg tradipitant oral, fasted; plasma; geometric mean [geometric % CV]; read-out: AUC(inf)
readout label: AUC(0-inf) (ng·h/mL)

> print(dat)
                           smiles.structure  readout.label  unit.of.measure  observed
1  O=C(c1ccccc1Cl)c1cccnc1-c1nnn(Cc2cc(C(F)(F)F)cc(C(F)(F)F)c2)c1-c1ccncc1     AUC(0-inf)          ng·h/mL      1840

###

Test: Four-period, two-way crossover open label single-dose food-effect pharmacokinetic study of tradipitant capsules in healthy participants (plasma tradipitant and metabolites M2, M3, M4, M8)
Format: in vivo, human
Conditions: human, plasma, po, 85 mg, 85 mg tradipitant oral, fasted; ln-transformed; read-out: AUC(inf), Least Squares Geometric Mean, Fasted
readout label: AUC(0-inf) (ng·h/mL)

> print(dat)
                                   compound  readout.label  unit.of.measure  observed
1  O=C(c1ccccc1Cl)c1cccnc1-c1nnn(Cc2cc(C(F)(F)F)cc(C(F)(F)F)c2)c1-c1ccncc1 [tradipitant]     AUC(0-inf)          ng·h/mL      1790

###

Assay: Four-period, two-way crossover open label single-dose food-effect pharmacokinetic study of tradipitant capsules in healthy participants (plasma tradipitant and metabolites M2, M3, M4, M8)
Assay type: in vivo, human
Conditions: human, plasma, po, 170 mg, 170 mg tradipitant oral, fed; plasma; geometric mean [geometric % CV]; read-out: AUC(inf)
readout label: AUC(0-inf) (ng·h/mL)

> print(dat)
                           smiles.structure  unit.of.measure  observed
1  O=C(c1ccccc1Cl)c1cccnc1-c1nnn(Cc2cc(C(F)(F)F)cc(C(F)(F)F)c2)c1-c1ccncc1          ng·h/mL     10400

###

Test: Four-period, two-way crossover open label single-dose food-effect pharmacokinetic study of tradipitant capsules in healthy participants (plasma tradipitant and metabolites M2, M3, M4, M8)
Format: in vivo, human
Settings: human, plasma, po, 85 mg, 85 mg tradipitant oral, fed; ln-transformed; read-out: AUC(inf), Least Squares Geometric Mean, Fed
readout label: AUC(0-inf) (ng·h/mL)

> print(dat)
                           smiles.structure  observed
1  O=C(c1ccccc1Cl)c1cccnc1-c1nnn(Cc2cc(C(F)(F)F)cc(C(F)(F)F)c2)c1-c1ccncc1      4700

###

Assay: Four-period, two-way crossover open label single-dose food-effect pharmacokinetic study of tradipitant capsules in healthy participants (plasma tradipitant and metabolites M2, M3, M4, M8)
Format: in vivo, human
Details: human, plasma, po, 85 mg, 85 mg tradipitant oral, fed; plasma; geometric mean [geometric % CV]; read-out: AUC(inf)
readout label: AUC(0-inf) (ng·h/mL)

> print(dat)
                                   compound  observed
1  O=C(c1ccccc1Cl)c1cccnc1-c1nnn(Cc2cc(C(F)(F)F)cc(C(F)(F)F)c2)c1-c1ccncc1 [tradipitant]      4520

###

Experiment: Four-period, two-way crossover open label single-dose food-effect pharmacokinetic study of tradipitant capsules in healthy participants (plasma tradipitant and metabolites M2, M3, M4, M8)
Format: in vivo, human
Conditions: human, plasma, po, 170 mg, 170 mg tradipitant oral, fed; ln-transformed; read-out: AUC(inf), Least Squares Geometric Mean, Fed
readout label: AUC(0-inf) (ng·h/mL)

> print(dat)
                                   compound  readout.label  observed
1  O=C(c1ccccc1Cl)c1cccnc1-c1nnn(Cc2cc(C(F)(F)F)cc(C(F)(F)F)c2)c1-c1ccncc1 [tradipitant]     AUC(0-inf)     10400

###

Assay: Four-period, two-way crossover open label single-dose food-effect pharmacokinetic study of tradipitant capsules in healthy participants (plasma tradipitant and metabolites M2, M3, M4, M8)
Assay type: in vivo, human
Settings: human, plasma, po, 170 mg, 170 mg tradipitant oral, fasted; ln-transformed; read-out: Cmax, Least Squares Geometric Mean, Fasted
readout label: Cmax

> print(dat)
                                   compound   observed
1  O=C(c1ccccc1Cl)c1cccnc1-c1nnn(Cc2cc(C(F)(F)F)cc(C(F)(F)F)c2)c1-c1ccncc1 [tradipitant]  111 ng/mL

###

Assay: Four-period, two-way crossover open label single-dose food-effect pharmacokinetic study of tradipitant capsules in healthy participants (plasma tradipitant and metabolites M2, M3, M4, M8)
Type: in vivo, human
Conditions: human, plasma, po, 170 mg, 170 mg tradipitant oral, fasted; plasma; geometric mean [geometric % CV]; read-out: Cmax
readout label: Cmax (ng/mL)

> print(dat)
                                   compound  observed
1  O=C(c1ccccc1Cl)c1cccnc1-c1nnn(Cc2cc(C(F)(F)F)cc(C(F)(F)F)c2)c1-c1ccncc1 [tradipitant]       112

###

Assay: Four-period, two-way crossover open label single-dose food-effect pharmacokinetic study of tradipitant capsules in healthy participants (plasma tradipitant and metabolites M2, M3, M4, M8)
Type: in vivo, human
Conditions: human, plasma, po, 85 mg, 85 mg tradipitant oral, fasted; ln-transformed; read-out: AUC(0-t), Least Squares Geometric Mean, Fasted
Description: To evaluate the pharmacokinetics and effect of food on the bioavailability of single-dose capsules containing 170 mg tradipitant and 85 mg tradipitant, an open label, four-period, two-way crossover study is performed. The study comprises two cohorts, each of which conducts a screening phase and an evaluation phase. Cohort 1 only conducts Period 1 and Period 2 (FIG. 5), while Cohort 2 only conducts Period 3 and Period 4 (FIG. 6). […]
readout label: AUC(0-t)

> print(dat)
                           smiles.structure      observed
1  O=C(c1ccccc1Cl)c1cccnc1-c1nnn(Cc2cc(C(F)(F)F)cc(C(F)(F)F)c2)c1-c1ccncc1  1650 ng·h/mL

###

Experiment: Four-period, two-way crossover open label single-dose food-effect pharmacokinetic study of tradipitant capsules in healthy participants (plasma tradipitant and metabolites M2, M3, M4, M8)
Format: in vivo, human
Conditions: human, plasma, po, 85 mg, 85 mg tradipitant oral, fasted; plasma; median; read-out: Tmax
readout label: Tmax (h)

> print(dat)
                                   molecule  readout.label  observed
1  O=C(c1ccccc1Cl)c1cccnc1-c1nnn(Cc2cc(C(F)(F)F)cc(C(F)(F)F)c2)c1-c1ccncc1 [tradipitant]           Tmax         2
